Method Summary: in vivo
Conditions: female, B6C3HF1, mouse, in vivo, ip, 5 mg/kg, Plasma
Observation Type: concentration at 4 h (ng/mL)

Cc1ccc2c(c1CCC(=O)O)CC[C@@H](NS(=O)(=O)c1ccc(Cl)cc1)C2; 190

###

Method Summary: in vivo
Conditions: female, B6C3HF1, mouse, in vivo, ip, 5 mg/kg, B/Pfree (unbound drug brain-to-plasma ratio)
Observation Type: Kp at 1 h

Cc1ccc2c(c1CCC(=O)O)CC[C@@H](NS(=O)(=O)c1ccc(Cl)cc1)C2; 0.04

###

Method Summary: Brain and plasma compound levels by LC-MS/MS after 5 mg/kg i.p. injection into mice
Conditions: female, B6C3HF1, mouse, plasma, ip, 5 mg/kg, Plasma, mice, 5 mg/kg i.p., 1 h after dosing
Observation Type: concentration at 1 h (ng/mL)

O=C(O)Cc1ccc(CCNS(=O)(=O)c2ccc(Cl)cc2)cc1; 6450

###

Method Summary: Brain and plasma compound levels by LC-MS/MS after 5 mg/kg i.p. injection into mice
Conditions: female, B6C3HF1, mouse, plasma, ip, 5 mg/kg, Plasma, mice, 5 mg/kg i.p., 4 h after dosing
Observation Type: concentration at 4 h (ng/mL)

O=C(O)Cc1ccc(CCNS(=O)(=O)c2ccc(Cl)cc2)cc1; 1790

###

Method Summary: Unbound fractions in plasma and brain homogenates by equilibrium dialysis
Assay type: in vitro ADME
Conditions: brain homogenate, equilibrium dialysis; read-out: fu(brain) (fraction unbound)
Observation Type: fraction unbound

Cc1ccc2c(c1CCC(=O)O)CC[C@@H](NS(=O)(=O)c1ccc(Cl)cc1)C2; 0.044
O=C(O)Cc1ccc(CCNS(=O)(=O)c2ccc(Cl)cc2)cc1; 0.221

###

Method Summary: Brain and plasma compound levels by LC-MS/MS after 5 mg/kg i.p. injection into mice
Conditions: female, B6C3HF1, mouse, brain, ip, 5 mg/kg, Brain, mice, 5 mg/kg i.p., 4 h after dosing
Observation Type: concentration at 4 h (ng/mL)

O=C(O)Cc1ccc(CCNS(=O)(=O)c2ccc(Cl)cc2)cc1 [Daltroban]; 55.9

###

Method Summary: in vivo
Conditions: female, B6C3HF1, mouse, in vivo, ip, 5 mg/kg, B/Pfree (unbound drug brain-to-plasma ratio)
Observation Type: Kp at 4 h

Cc1ccc2c(c1CCC(=O)O)CC[C@@H](NS(=O)(=O)c1ccc(Cl)cc1)C2 [Compound S18886]; 0.08

###

Method Summary: Brain and plasma compound levels by LC-MS/MS after 5 mg/kg i.p. injection into mice
Conditions: female, B6C3HF1, mouse, brain/plasma (unbound), ip, 5 mg/kg
Observation Type: Kp at 1 h

O=C(O)Cc1ccc(CCNS(=O)(=O)c2ccc(Cl)cc2)cc1; 0.04

###

Method Summary: in vivo
Conditions: female, B6C3HF1, mouse, in vivo, ip, 5 mg/kg, B/P (brain-to-plasma ratio)
Observation Type: Kp at 4 h

Cc1ccc2c(c1CCC(=O)O)CC[C@@H](NS(=O)(=O)c1ccc(Cl)cc1)C2; 0.05

###

Method Summary: Unbound fractions in plasma and brain homogenates by equilibrium dialysis
Assay type: in vitro ADME
Conditions: plasma, equilibrium dialysis; read-out: fu(plasma) (fraction unbound)
Observation Type: fraction unbound

Cc1ccc2c(c1CCC(=O)O)CC[C@@H](NS(=O)(=O)c1ccc(Cl)cc1)C2; 0.026

###

Method Summary: S18886 brain and plasma levels after administration to mice in drinking water
Type: in vivo
Conditions: mouse, brain, oral; dosing by drinking water, day 1, daylight phase; read-out: Free S18886 brain level
Observation Type: concentration at 1 day (nM)

Cc1ccc2c(c1CCC(=O)O)CC[C@@H](NS(=O)(=O)c1ccc(Cl)cc1)C2 [Compound S18886]; 0.093

###

The reader will find reported plasma/brain unbound fraction ratio values listed item by item below.
Method Summary: Unbound fractions in plasma and brain homogenates by equilibrium dialysis
Format: in vitro ADME
Conditions: plasma and brain homogenate; ratio of unbound fractions plasma/brain; read-out: fu(pl)/fu(br)
Observation Type: plasma/brain unbound fraction ratio

O=C(O)Cc1ccc(CCNS(=O)(=O)c2ccc(Cl)cc2)cc1 [Daltroban]; 0.52
Cc1ccc2c(c1CCC(=O)O)CC[C@@H](NS(=O)(=O)c1ccc(Cl)cc1)C2 [Compound S18886]; 0.59

###

Method Summary: Brain and plasma compound levels by LC-MS/MS after 5 mg/kg i.p. injection into mice
Conditions: female, B6C3HF1, mouse, brain/plasma, ip, 5 mg/kg
Observation Type: Kp at 1 h

O=C(O)Cc1ccc(CCNS(=O)(=O)c2ccc(Cl)cc2)cc1; 0.02

###

Method Summary: Brain and plasma compound levels by LC-MS/MS after 5 mg/kg i.p. injection into mice
Conditions: female, B6C3HF1, mouse, brain/plasma (unbound), ip, 5 mg/kg
Observation Type: Kp at 4 h

O=C(O)Cc1ccc(CCNS(=O)(=O)c2ccc(Cl)cc2)cc1; 0.06

###

Method Summary: S18886 brain and plasma levels after administration to mice in drinking water
Type: in vivo
Conditions: mouse, brain, oral; dosing by drinking water, day 2, daylight phase; read-out: Free S18886 brain level
Observation Type: concentration at 2 day (nM)

Cc1ccc2c(c1CCC(=O)O)CC[C@@H](NS(=O)(=O)c1ccc(Cl)cc1)C2 [Compound S18886]; 0.117

###

Method Summary: in vivo
Conditions: female, B6C3HF1, mouse, in vivo, ip, 5 mg/kg, B/P (brain-to-plasma ratio)
Observation Type: Kp at 1 h

Cc1ccc2c(c1CCC(=O)O)CC[C@@H](NS(=O)(=O)c1ccc(Cl)cc1)C2 [Compound S18886]; 0.02

###

Method Summary: Brain and plasma compound levels by LC-MS/MS after 5 mg/kg i.p. injection into mice
Conditions: female, B6C3HF1, mouse, brain/plasma, ip, 5 mg/kg
Observation Type: Kp at 4 h

O=C(O)Cc1ccc(CCNS(=O)(=O)c2ccc(Cl)cc2)cc1; 0.03

###

Method Summary: in vivo
Conditions: female, B6C3HF1, mouse, in vivo, ip, 5 mg/kg, Brain
Observation Type: concentration at 4 h (ng/mL)

Cc1ccc2c(c1CCC(=O)O)CC[C@@H](NS(=O)(=O)c1ccc(Cl)cc1)C2; 9

###

Method Summary: Brain and plasma compound levels by LC-MS/MS after 5 mg/kg i.p. injection into mice
Conditions: female, B6C3HF1, mouse, brain, ip, 5 mg/kg, Brain, mice, 5 mg/kg i.p., 1 h after dosing
Observation Type: concentration at 1 h (ng/mL)

O=C(O)Cc1ccc(CCNS(=O)(=O)c2ccc(Cl)cc2)cc1; 133
